Consider the following compounds; for each one, report its inhibition at 10 μM.
# target_under_test: hERG (human ether-a-go-go related gene potassium channel, KCNH2) (Homo sapiens, UniProt Q12809)
# Construct: expressed in transfected cells; host or cells: HEK293
# Sequence (Q12809 whole entry): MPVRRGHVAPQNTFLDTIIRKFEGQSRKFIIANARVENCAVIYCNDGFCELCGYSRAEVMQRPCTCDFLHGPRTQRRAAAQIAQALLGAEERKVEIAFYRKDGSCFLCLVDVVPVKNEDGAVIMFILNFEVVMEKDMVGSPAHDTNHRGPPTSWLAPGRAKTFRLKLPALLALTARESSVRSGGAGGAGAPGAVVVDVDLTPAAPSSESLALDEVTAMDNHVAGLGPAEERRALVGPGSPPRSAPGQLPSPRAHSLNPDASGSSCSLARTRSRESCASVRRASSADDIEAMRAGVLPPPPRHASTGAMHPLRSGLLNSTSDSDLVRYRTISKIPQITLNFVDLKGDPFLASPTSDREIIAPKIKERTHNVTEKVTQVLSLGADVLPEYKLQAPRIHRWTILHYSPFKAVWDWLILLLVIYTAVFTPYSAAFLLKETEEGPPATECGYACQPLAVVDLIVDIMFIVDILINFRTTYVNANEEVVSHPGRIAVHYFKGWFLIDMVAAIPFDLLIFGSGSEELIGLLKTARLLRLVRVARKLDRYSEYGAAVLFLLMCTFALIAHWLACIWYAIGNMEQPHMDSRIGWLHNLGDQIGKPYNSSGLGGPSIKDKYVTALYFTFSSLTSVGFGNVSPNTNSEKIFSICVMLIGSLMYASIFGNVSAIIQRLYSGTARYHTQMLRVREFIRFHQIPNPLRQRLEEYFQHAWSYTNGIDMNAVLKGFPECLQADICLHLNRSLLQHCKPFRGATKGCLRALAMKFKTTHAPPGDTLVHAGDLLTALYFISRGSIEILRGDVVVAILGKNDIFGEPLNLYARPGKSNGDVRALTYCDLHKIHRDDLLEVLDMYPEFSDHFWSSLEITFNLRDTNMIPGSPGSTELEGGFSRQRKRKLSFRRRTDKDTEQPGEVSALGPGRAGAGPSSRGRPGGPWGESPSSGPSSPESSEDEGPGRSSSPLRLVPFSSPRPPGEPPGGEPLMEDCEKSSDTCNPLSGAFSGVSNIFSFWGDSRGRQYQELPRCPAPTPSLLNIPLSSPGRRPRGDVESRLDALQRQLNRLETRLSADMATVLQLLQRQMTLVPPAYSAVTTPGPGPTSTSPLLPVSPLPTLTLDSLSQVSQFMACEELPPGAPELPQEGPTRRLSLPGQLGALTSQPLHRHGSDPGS
# assay_info: hERG channel whole-cell patch clamp (Ion Channel Activity Measurement)
# Assay type: cell-based
# run_parameters: human, HEK293 cells expressing the human ERG potassium channel, pH 7.4, 10 μM test article, room temperature

QUERY: Looking for the measured inhibition at 10 μM of `CS(=O)(=O)Nc1cc(Cc2c(NS(C)(=O)=O)ccc3ccccc23)c2ccccc2c1` , can you help?
RESULT: 50 to 75%

QUERY: Looking for the measured inhibition at 10 μM of CCN(CC)CCOc1ccc2ccccc2c1N(C)c1c(OC)ccc2ccccc12 [Compound A111-I-2, 2,2,2-trifluoroacetate] , can you help?
RESULT: 75 to 100%

QUERY: Looking for the measured inhibition at 10 μM of `COc1ccc2ccccc2c1Cc1c(OCCO)ccc2ccccc12` , can you help?
RESULT: 75 to 100%

QUERY: Looking for the measured inhibition at 10 μM of `CCN(CC)CCOc1c(C)cc2ccccc2c1Cc1c(O)c(C)cc2ccccc12` , can you help?
RESULT: < 25%

QUERY: Looking for the measured inhibition at 10 μM of `O=C(O)c1ccc2c(Cc3c(O)ccc4ccccc34)c(O)ccc2c1` , can you help?
RESULT: 50 to 75%

QUERY: Looking for the measured inhibition at 10 μM of `O=C(Nc1c(O)ccc2ccccc12)c1c(O)ccc2ccccc12` , can you help?
RESULT: 25 to 50%

QUERY: Looking for the measured inhibition at 10 μM of `O=C(O)c1ccc2ccccc2c1Cc1c(O)ccc2ccccc12` , can you help?
RESULT: < 25%

QUERY: Looking for the measured inhibition at 10 μM of `NC(=O)c1ccc2c(Cc3c(O)ccc4cc(C(N)=O)ccc34)c(O)ccc2c1` , can you help?
RESULT: 25 to 50%

QUERY: Looking for the measured inhibition at 10 μM of Oc1cccc2c1C(c1c(O)ccc3ccccc13)CC2 (stereo not drawn) , can you help?
RESULT: 75 to 100%

====

# target_under_test: CaV1.2 (L-type voltage-dependent calcium channel; CACNA1C, CACNB2, CACNA2D1) (Homo sapiens, UniProt Q13936)
# Construct: expressed in transfected cells; host or cells: CHO
# Sequence (Q13936 1-2138 isoform Q13936-12): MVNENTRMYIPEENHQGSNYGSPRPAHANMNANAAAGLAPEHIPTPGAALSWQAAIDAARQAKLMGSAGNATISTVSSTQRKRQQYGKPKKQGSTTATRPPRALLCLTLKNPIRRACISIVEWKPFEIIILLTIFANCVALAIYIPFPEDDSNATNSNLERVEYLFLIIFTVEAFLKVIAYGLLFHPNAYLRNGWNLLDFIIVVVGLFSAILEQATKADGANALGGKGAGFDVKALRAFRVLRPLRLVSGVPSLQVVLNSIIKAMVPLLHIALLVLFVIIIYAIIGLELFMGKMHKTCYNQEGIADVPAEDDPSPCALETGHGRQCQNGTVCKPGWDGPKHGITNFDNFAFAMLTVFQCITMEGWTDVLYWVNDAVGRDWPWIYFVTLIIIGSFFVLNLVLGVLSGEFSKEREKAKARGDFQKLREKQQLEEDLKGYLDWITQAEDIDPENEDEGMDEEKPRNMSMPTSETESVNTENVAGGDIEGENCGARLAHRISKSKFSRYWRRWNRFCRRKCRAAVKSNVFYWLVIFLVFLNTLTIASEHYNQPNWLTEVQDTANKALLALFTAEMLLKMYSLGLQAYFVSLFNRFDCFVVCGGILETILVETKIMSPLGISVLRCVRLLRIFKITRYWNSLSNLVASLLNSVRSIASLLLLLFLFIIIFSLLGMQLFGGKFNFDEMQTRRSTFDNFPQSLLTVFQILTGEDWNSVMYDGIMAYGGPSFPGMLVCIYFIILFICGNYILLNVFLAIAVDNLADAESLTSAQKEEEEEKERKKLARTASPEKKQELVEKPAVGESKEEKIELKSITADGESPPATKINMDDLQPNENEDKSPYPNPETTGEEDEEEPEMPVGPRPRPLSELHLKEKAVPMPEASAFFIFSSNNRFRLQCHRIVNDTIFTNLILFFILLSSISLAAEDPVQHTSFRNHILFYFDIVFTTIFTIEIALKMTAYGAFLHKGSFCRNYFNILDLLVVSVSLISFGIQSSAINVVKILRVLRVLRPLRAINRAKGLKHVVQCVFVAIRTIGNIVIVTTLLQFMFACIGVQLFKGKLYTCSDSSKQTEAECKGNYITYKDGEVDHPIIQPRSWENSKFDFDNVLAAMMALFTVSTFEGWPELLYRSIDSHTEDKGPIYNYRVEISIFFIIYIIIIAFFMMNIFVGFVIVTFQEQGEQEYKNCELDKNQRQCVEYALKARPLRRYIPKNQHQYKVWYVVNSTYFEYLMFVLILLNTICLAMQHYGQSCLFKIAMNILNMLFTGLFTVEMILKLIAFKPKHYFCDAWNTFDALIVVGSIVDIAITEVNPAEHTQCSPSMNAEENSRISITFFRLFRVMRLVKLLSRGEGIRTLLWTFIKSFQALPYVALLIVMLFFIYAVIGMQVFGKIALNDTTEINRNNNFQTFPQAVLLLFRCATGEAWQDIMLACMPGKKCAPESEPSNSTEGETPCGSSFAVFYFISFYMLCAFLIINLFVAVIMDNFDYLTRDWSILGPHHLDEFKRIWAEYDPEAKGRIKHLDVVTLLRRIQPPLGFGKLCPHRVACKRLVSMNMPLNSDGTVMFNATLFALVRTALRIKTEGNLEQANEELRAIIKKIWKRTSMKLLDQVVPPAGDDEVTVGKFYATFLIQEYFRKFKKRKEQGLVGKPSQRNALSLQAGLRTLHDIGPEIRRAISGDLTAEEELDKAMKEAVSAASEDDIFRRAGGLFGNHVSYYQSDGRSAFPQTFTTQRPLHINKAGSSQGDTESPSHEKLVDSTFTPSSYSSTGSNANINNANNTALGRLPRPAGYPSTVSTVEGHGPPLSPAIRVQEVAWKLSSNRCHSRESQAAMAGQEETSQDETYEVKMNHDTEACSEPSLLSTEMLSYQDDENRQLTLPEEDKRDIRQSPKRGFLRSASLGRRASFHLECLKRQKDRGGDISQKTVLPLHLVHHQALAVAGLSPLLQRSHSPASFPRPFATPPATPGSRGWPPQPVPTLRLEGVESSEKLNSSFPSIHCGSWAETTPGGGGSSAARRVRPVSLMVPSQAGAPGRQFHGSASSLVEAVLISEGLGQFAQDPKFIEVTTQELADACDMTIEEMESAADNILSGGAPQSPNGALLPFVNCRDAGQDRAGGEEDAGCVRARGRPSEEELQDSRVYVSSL
# Sequence (Q08289 1-605 isoform Q08289-2 partner): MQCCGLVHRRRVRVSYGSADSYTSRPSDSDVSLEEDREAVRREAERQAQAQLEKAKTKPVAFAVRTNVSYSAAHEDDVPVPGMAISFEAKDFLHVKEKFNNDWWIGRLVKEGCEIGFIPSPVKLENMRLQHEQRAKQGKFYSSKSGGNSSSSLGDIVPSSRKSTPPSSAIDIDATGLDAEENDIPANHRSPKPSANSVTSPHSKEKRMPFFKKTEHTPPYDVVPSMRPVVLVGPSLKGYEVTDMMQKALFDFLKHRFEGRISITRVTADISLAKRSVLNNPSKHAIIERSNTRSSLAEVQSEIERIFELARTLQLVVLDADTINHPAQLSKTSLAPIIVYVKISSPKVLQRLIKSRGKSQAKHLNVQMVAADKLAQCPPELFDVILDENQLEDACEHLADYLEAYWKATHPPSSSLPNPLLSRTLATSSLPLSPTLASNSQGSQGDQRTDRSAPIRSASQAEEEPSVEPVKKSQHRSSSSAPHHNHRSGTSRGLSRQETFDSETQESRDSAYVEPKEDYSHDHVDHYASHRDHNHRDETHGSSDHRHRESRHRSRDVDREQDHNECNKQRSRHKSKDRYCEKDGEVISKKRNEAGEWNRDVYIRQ
# Sequence (P54289 25-1091 isoform P54289-2 partner limits assumed): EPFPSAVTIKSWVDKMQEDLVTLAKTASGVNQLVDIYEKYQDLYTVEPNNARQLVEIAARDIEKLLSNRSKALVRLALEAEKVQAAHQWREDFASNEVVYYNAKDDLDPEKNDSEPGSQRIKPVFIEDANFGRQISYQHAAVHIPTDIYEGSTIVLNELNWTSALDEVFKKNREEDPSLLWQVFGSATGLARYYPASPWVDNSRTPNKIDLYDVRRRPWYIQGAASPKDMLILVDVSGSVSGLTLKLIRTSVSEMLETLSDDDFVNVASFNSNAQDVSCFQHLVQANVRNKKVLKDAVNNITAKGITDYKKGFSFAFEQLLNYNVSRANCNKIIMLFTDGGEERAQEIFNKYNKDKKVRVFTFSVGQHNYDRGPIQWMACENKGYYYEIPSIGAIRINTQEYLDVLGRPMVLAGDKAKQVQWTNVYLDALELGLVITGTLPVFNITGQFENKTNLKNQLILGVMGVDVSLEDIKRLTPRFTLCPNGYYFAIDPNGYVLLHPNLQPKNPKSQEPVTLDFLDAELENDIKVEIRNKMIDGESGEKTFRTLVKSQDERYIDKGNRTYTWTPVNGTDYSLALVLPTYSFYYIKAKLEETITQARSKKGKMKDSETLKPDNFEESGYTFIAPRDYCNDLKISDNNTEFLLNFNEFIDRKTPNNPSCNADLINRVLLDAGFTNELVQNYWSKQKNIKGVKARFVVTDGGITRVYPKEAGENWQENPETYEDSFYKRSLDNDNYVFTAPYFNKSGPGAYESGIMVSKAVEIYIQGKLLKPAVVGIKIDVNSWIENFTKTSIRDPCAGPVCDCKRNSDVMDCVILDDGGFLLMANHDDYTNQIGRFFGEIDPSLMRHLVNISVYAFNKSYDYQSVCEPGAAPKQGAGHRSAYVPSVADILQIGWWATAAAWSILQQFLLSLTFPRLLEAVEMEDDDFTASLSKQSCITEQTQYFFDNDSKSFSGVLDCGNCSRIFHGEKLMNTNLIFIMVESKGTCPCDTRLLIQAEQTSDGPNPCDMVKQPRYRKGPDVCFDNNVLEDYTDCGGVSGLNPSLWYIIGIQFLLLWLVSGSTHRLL
# Sequence (P54289 957-1103 partner limits assumed): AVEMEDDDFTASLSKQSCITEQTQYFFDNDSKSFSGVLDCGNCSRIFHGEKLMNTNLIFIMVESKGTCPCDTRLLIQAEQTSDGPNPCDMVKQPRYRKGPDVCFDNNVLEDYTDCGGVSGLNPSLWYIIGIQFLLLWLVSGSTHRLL
# assay_info: CaV1.2 channel whole-cell patch clamp (Ion Channel Activity Measurement)
# Assay type: cell-based
# run_parameters: human, pH 7.4, 1 μM test article, room temperature
Counter-ions that a name gives are not always drawn.
property_measured: inhibition at 5 min, 1 μM

QUERY: Looking for the measured inhibition at 5 min, 1 μM of Oc1cccc2c1C(c1c(O)ccc3ccccc13)CCC2 (stereo not drawn) , can you help?
RESULT: < 25%

QUERY: Looking for the measured inhibition at 5 min, 1 μM of `CCOCOc1ccc2ccccc2c1Cc1c(OCCN)ccc2ccccc12` , can you help?
RESULT: < 25%

QUERY: Looking for the measured inhibition at 5 min, 1 μM of `Oc1cccc(-c2cccnc2)c1Cc1c(O)cccc1-c1cccnc1` , can you help?
RESULT: < 25%

QUERY: Looking for the measured inhibition at 5 min, 1 μM of `CC(C)(O)c1cc2ccccc2c(Cc2c(O)c(C(C)(C)O)cc3ccccc23)c1O` , can you help?
RESULT: < 25%

QUERY: Looking for the measured inhibition at 5 min, 1 μM of `Oc1ccc2c(c1Cc1c(O)ccc3ccccc13)CNCC2` , can you help?
RESULT: < 25%

QUERY: Looking for the measured inhibition at 5 min, 1 μM of `CCN(CC)CCCOc1ccc2ccccc2c1Cc1c(O)ccc2ccccc12` , can you help?
RESULT: 25 to 50%

QUERY: Looking for the measured inhibition at 5 min, 1 μM of `O=C1Cc2ccccc2N1Cc1c(O)ccc2ccccc12` , can you help?
RESULT: < 25%

QUERY: Looking for the measured inhibition at 5 min, 1 μM of `COc1cccc(C2CCNCC2)c1Cc1c(OC)cccc1C1CCNCC1` , can you help?
RESULT: 25 to 50%

QUERY: Looking for the measured inhibition at 5 min, 1 μM of `CCN(CC)CC(=O)Oc1ccc2ccccc2c1Cc1c(OC)ccc2ccccc12` , can you help?
RESULT: < 25%

QUERY: Looking for the measured inhibition at 5 min, 1 μM of `O=C(c1c(O)ccc2ccccc12)c1c(OCCN2CCCC2)ccc2ccccc12` , can you help?
RESULT: < 25%

QUERY: Looking for the measured inhibition at 5 min, 1 μM of COc1ccc2ccccc2c1Cc1c(OCC[N+]2(C)CCOCC2)ccc2ccccc12 [Compound A130-2, formate] , can you help?
RESULT: 50 to 75%

QUERY: Looking for the measured inhibition at 5 min, 1 μM of `COc1ccc(COCc2ccc3ccccc3c2C(O)c2c(COCc3ccc(OC)cc3)ccc3ccccc23)cc1` , can you help?
RESULT: < 25%

QUERY: Looking for the measured inhibition at 5 min, 1 μM of Oc1cccc2c1C(c1c(O)ccc3ccccc13)CC2 (stereo not drawn) , can you help?
RESULT: < 25%

QUERY: Looking for the measured inhibition at 5 min, 1 μM of `Oc1ccc2ccccc2c1Cc1c(OCCN2CCCC2)ccc2ccccc12` , can you help?
RESULT: 25 to 50%

QUERY: Looking for the measured inhibition at 5 min, 1 μM of `CC(=O)N(c1c(O)ccc2ccccc12)c1c(O)ccc2ccccc12` , can you help?
RESULT: < 25%

QUERY: Looking for the measured inhibition at 5 min, 1 μM of `Oc1c(Cl)cc2ccccc2c1Cc1c(O)c(Cl)cc2ccccc12` , can you help?
RESULT: < 25%

QUERY: Looking for the measured inhibition at 5 min, 1 μM of `CC(C)Oc1ccc2ccccc2c1Cc1c(OCCN2CCCC2)ccc2ccccc12` , can you help?
RESULT: < 25%

QUERY: Looking for the measured inhibition at 5 min, 1 μM of `Cc1ccc(O)c(Cc2c(O)ccc(C)c2C)c1C` , can you help?
RESULT: < 25%

QUERY: Looking for the measured inhibition at 5 min, 1 μM of `CC(C)c1cc2ccccc2c(Cc2c(O)c(C(C)C)cc3ccccc23)c1O` , can you help?
RESULT: < 25%

QUERY: Looking for the measured inhibition at 5 min, 1 μM of `Cc1cc2ccccc2c(Cc2c(O)ccc3ccccc23)c1O` , can you help?
RESULT: < 25%

QUERY: Looking for the measured inhibition at 5 min, 1 μM of `NC(=O)c1ccc2c(Cc3c(O)ccc4ccccc34)c(O)ccc2c1` , can you help?
RESULT: < 25%

QUERY: Looking for the measured inhibition at 5 min, 1 μM of `CCN(CC)CC(=O)Nc1ccc2ccccc2c1Cc1c(OC)ccc2ccccc12` , can you help?
RESULT: < 25%

QUERY: Looking for the measured inhibition at 5 min, 1 μM of `CCN(CC)CCNC(=O)c1ccc2ccccc2c1Cc1c(OC)ccc2ccccc12` , can you help?
RESULT: 25 to 50%

QUERY: Looking for the measured inhibition at 5 min, 1 μM of `Nc1ccc2ccccc2c1Cc1c(O)ccc2ccccc12` , can you help?
RESULT: < 25%

QUERY: Looking for the measured inhibition at 5 min, 1 μM of `CCN(CC)CCOc1ccc2ccccc2c1Sc1c(OC)ccc2ccccc12` , can you help?
RESULT: < 25%

QUERY: Looking for the measured inhibition at 5 min, 1 μM of `COc1cc2ccccc2c(Cc2c(O)c(OC)cc3ccccc23)c1O` , can you help?
RESULT: < 25%

QUERY: Looking for the measured inhibition at 5 min, 1 μM of `NC(=O)c1ccc2c(Cc3c(O)ccc4cc(C(N)=O)ccc34)c(O)ccc2c1` , can you help?
RESULT: < 25%

====

Consider the following compounds; for each one, report its inhibition at 1 μM.
# target_under_test: hERG (human ether-a-go-go related gene potassium channel, KCNH2) (Homo sapiens, UniProt Q12809)
# Construct: expressed in transfected cells; host or cells: HEK293
# assay_info: hERG channel whole-cell patch clamp (Ion Channel Activity Measurement)
# Assay type: cell-based
# run_parameters: human, pH 7.4, 1 μM test article, room temperature

QUERY: Looking for the measured inhibition at 1 μM of `CCN(CC)CC(=O)Oc1ccc2ccccc2c1Cc1c(OC)ccc2ccccc12` , can you help?
RESULT: 50 to 75%

QUERY: Looking for the measured inhibition at 1 μM of `COc1ccc2ccccc2c1Cc1c(COCCN2CCCC2)ccc2ccccc12` , can you help?
RESULT: 75 to 100%

QUERY: Looking for the measured inhibition at 1 μM of `Nc1ccc2ccccc2c1Cc1c(N)ccc2ccccc12` , can you help?
RESULT: < 25%

QUERY: Looking for the measured inhibition at 1 μM of `COc1cccc(C2CCNCC2)c1Cc1c(OC)cccc1C1CCNCC1` , can you help?
RESULT: < 25%

QUERY: Looking for the measured inhibition at 1 μM of `Oc1ccc2ccccc2c1Cn1nc(-c2ccccc2)cc1O` , can you help?
RESULT: < 25%
